Record form. Attribute: pest or weed control at 80 g/ha. Fill in for each entry.
# Tested on: Veronica persica
# assay: Pre-emergence herbicidal activity against VERPE
# Assay type: in vivo
# runParameters: Veronica persica, 504 h, dosage 80 g/ha
Reply with just the number (in %).

Tell me reported pest or weed control at 80 g/ha for C=C[C@]1(C(=O)N[C@@H]2CO[C@H](C(=O)NC3CC3)C2)CC(c2cc(F)cc(F)c2)=NO1 (mixture of isomers) [Example I-18] , tested with Veronica persica.
90

Tell me reported pest or weed control at 80 g/ha for C=C[C@]1(C(=O)N[C@@H]2CO[C@H](C(=O)NS(C)(=O)=O)C2)CC(c2cc(F)cc(F)c2)=NO1 (mixture of isomers) [Example I-16] , tested with Veronica persica.
90

Tell me reported pest or weed control at 80 g/ha for C=C[C@]1(C(=O)N[C@@H]2CO[C@H](C(=O)NOC(C)C)C2)CC(c2cc(F)cc(F)c2)=NO1 (mixture of isomers) [Example I-13] , tested with Veronica persica.
90

Tell me reported pest or weed control at 80 g/ha for C=C[C@]1(C(=O)N[C@@H]2CO[C@H](C(=O)NS(=O)(=O)C(F)(F)F)C2)CC(c2cc(F)cc(F)c2)=NO1 (mixture of isomers) [Example I-14] , tested with Veronica persica.
90

Tell me reported pest or weed control at 80 g/ha for C=C[C@]1(C(=O)N[C@@H]2CO[C@H](C(=O)NOCC)C2)CC(c2cc(F)cc(F)c2)=NO1 (mixture of isomers) [Example I-12] , tested with Veronica persica.
100

Tell me reported pest or weed control at 80 g/ha for C=C[C@]1(C(=O)N[C@@H]2CO[C@H](C(=O)NOC)C2)CC(c2cc(F)cc(F)c2)=NO1 (mixture of isomers) [Example I-11] , tested with Veronica persica.
90

Tell me reported pest or weed control at 80 g/ha for C=CC1(C(=O)N[C@@H]2CO[C@H](C(=O)NC)C2)CC(c2cc(F)cc(F)c2)=NO1 (relative stereo) [Example I-02] , tested with Veronica persica.
90

Tell me reported pest or weed control at 80 g/ha for CC1(C(=O)NC2COCC2C(=O)NC2CC2)CC(c2cc(F)cc(F)c2)=NO1 (stereo not shown) [Example I-08] , tested with Veronica persica.
90

Tell me reported pest or weed control at 80 g/ha for C=C[C@]1(C(=O)N[C@@H]2CO[C@H](C(=O)N(C)C)C2)CC(c2cc(F)cc(F)c2)=NO1 (mixture of isomers) [Example I-17] , tested with Veronica persica.
100

Tell me reported pest or weed control at 80 g/ha for C=C[C@]1(C(=O)N[C@@H]2CO[C@H](C(=O)NN(C)C)C2)CC(c2cc(F)cc(F)c2)=NO1 (mixture of isomers) [Example I-15] , tested with Veronica persica.
100

* * *

Record form. Attribute: Pre-emergence herbicidal activity in % against STEME. Fill in for each entry.
# System: Stellaria media
# assay: Pre-emergence herbicidal activity against STEME
# Format: in vivo
# runParameters: dosage 80 g/ha, scored visually after about 3 weeks vs untreated controls
Reply with just the number (in %).

Please give the measured Pre-emergence herbicidal activity in % against STEME for this compound: C=C[C@]1(C(=O)N[C@@H]2CO[C@H](C(=O)NCC(=O)OC)C2)CC(c2cc(F)cc(F)c2)=NO1 [Example I-21]
90

Please give the measured Pre-emergence herbicidal activity in % against STEME for this compound: C[C@]1(C(=O)N[C@@H]2CO[C@H](C(=O)NCc3ncc(C(F)(F)F)cc3Cl)C2)CC(c2cc(F)cc(F)c2)=NO1 [Example I-27]
90

Please give the measured Pre-emergence herbicidal activity in % against STEME for this compound: C=CC1(C(=O)NC2COC(C(=O)NC(C)CC(=O)OCC)C2)CC(c2cc(F)cc(F)c2)=NO1 (centres unmarked) [Example I-22]
90

Please give the measured Pre-emergence herbicidal activity in % against STEME for this compound: CONC(=O)[C@@H]1C[C@H](NC(=O)[C@@]2(C)CC(c3cc(F)cc(F)c3)=NO2)CO1 [Example I-24]
90

Please give the measured Pre-emergence herbicidal activity in % against STEME for this compound: CN(C)NC(=O)[C@@H]1C[C@H](NC(=O)[C@@]2(C)CC(c3cc(F)cc(F)c3)=NO2)CO1 [Example I-26]
100

Please give the measured Pre-emergence herbicidal activity in % against STEME for this compound: C=C[C@]1(C(=O)N[C@@H]2CO[C@H](C(=O)NCCC(=O)OC)C2)CC(c2cc(F)cc(F)c2)=NO1 [Example I-20]
100

Please give the measured Pre-emergence herbicidal activity in % against STEME for this compound: CN(C)C(=O)[C@@H]1C[C@H](NC(=O)[C@@]2(C)CC(c3cc(F)cc(F)c3)=NO2)CO1 [Example I-25]
100

Please give the measured Pre-emergence herbicidal activity in % against STEME for this compound: C[C@]1(C(=O)N[C@@H]2CO[C@H](C(=O)NS(C)(=O)=O)C2)CC(c2cc(F)cc(F)c2)=NO1 [Example I-23]
100
